Can you tell me pIC50 for the items I'm about to list?
TEST SYSTEM: recombinant human GAA (acid alpha-glucosidase) (Homo sapiens, UniProt P10253)
PROTOCOL DESCRIPTION: Acid alpha-glucosidase (GAA) assay (4-methylumbelliferyl-alpha-D-pyranoside substrate, fluorescence)
# pIC50: negative log10 of molar concentration; output just the value

Entry Cc1cc(Br)cc(NCc2ccc(CN3C[C@H](O)[C@@H](O)[C@H](O)[C@H]3CO)cc2)c1 [Compound 1024] has what pIC50? 6.66

And N#Cc1cc(-c2ncccn2)ccc1NCCCCCCN1C[C@H](O)[C@@H](O)[C@H](O)[C@H]1CO [Compound 1256] ? 7.48

Query COc1cc(NCCCCCCN2C[C@H](O)[C@@H](O)[C@H](O)[C@H]2CO)cc(-c2ncco2)c1 [Compound 1216] next 7.43

Consider next the molecule Cc1cc(CN2CCOCC2)cc(NCc2ccc(CN3C[C@H](O)[C@@H](O)[C@H](O)[C@H]3CO)cc2)c1 [Compound 1005] in the same way. 6.10

Then this molecule: [N-]=[N+]=Nc1ccc(NCCC(O)C(O)CCN2C[C@H](O)[C@@H](O)[C@H](O)[C@H]2CO)c([N+](=O)[O-])c1 (some centres unmarked) [Compound 1270] 6.72
